Values compiled from ChEMBL document CHEMBL4130451.

Assay: Brain to plasma partition coefficient, Kp of the compound in Harlan CD-1 mouse at 3 mg/kg, ip by LC/MS-MS analysis
Type: ADME, organism-based
assay_readout: Kp
Lab note: record just the number, no unit beside it.

Kp for `C[C@@H](COc1ccn(-c2ccc(F)cc2)c(=O)c1)Oc1ccccc1` is 1.2

====

Molecular target: Cytochrome P450 2D6 (Homo sapiens, UniProt P10635)
Sequence (P10635 whole entry): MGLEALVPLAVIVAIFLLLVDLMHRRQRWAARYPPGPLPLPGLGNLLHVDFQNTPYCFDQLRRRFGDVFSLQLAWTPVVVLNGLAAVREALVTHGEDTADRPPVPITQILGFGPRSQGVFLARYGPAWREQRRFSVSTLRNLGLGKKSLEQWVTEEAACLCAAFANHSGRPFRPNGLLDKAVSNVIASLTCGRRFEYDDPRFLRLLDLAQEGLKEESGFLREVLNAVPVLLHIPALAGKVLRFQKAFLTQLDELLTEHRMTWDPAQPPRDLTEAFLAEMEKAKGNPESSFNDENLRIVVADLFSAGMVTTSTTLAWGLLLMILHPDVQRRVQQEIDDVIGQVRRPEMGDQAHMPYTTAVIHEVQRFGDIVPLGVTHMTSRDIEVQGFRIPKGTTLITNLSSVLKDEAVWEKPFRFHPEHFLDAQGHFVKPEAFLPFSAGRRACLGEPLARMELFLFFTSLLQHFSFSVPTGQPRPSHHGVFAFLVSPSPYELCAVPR
assay_readout: IC50

IC50 for `C[C@@H](COc1ccn(-c2ccc(F)cc2)c(=O)c1)Oc1ccccc1` is > 30 µM

====

Target: Metabotropic glutamate receptor 3 (Rattus norvegicus) (UniProt P31422)
Sequence (P31422 23-879 limits assumed): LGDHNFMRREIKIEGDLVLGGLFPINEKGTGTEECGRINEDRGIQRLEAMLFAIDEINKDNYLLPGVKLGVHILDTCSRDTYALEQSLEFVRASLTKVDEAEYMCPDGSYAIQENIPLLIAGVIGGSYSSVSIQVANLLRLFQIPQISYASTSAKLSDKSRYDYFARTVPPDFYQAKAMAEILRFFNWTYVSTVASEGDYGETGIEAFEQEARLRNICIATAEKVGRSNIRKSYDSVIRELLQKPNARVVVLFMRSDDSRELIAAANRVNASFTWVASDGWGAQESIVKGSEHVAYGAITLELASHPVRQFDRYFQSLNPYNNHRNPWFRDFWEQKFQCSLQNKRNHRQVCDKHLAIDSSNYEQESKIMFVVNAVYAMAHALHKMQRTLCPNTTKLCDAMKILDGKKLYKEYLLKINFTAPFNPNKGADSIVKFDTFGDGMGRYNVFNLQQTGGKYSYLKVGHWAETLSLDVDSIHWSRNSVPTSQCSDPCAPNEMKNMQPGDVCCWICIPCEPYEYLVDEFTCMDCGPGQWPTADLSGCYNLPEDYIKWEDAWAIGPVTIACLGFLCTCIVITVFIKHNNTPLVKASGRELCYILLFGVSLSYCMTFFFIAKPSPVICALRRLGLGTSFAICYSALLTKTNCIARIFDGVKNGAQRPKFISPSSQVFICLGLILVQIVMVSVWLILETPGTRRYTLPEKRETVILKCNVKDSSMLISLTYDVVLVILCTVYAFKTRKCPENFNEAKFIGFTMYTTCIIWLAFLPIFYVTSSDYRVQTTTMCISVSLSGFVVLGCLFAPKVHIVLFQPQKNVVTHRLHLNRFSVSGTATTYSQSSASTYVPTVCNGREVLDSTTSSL
Assay: Negative allosteric modulation of rat mGlu3 receptor expressed in TREX cells coexpressing Galpha15 assessed as inhibition of glutamate induced-calcium mobilization by measuring minimum glutamate response preincubated for 2.3 mins followed by glutamate addition measured for 2.6 mins by Fluo-4 AM dye based fluorescence assay relative to glutamate
Type: functional, cell-based
assay_readout: Emin (%)
Kindly answer with a numeric value in %, unit omitted.

INSERT INTO results (molecule, assay_readout, value_measured) VALUES
  ('O=c1nc(OCCOc2ccccc2)ccn1-c1ccc(F)cc1', 'Emin', 3.94),
  ('O=c1cc(OCCOc2ncccc2Cl)ccn1-c1ccc(F)cc1', 'Emin', 3.62),
  ('O=c1cc(OCCOc2ccccc2)ccn1-c1ccc(F)c(F)c1', 'Emin', 3.53),
  ('C[C@@H](COc1ccn(-c2ccc(F)cc2)c(=O)c1)Oc1ccccc1', 'Emin', 3.33),
  ('CC(COc1ccn(-c2ccc(F)cc2)c(=O)c1)Oc1ccccc1 (stereo not drawn)', 'Emin', 3.57),
  ('O=c1cc(OCCOc2cccc(F)c2)ccn1-c1ccc(F)cc1', 'Emin', 3.56);

Emin for `O=c1nc(OCCOc2ccccc2)ccn1-c1cccc(F)c1` is 15.5

Emin for `N#Cc1cc(F)cc(-n2ccc(OCCOc3ccccc3)cc2=O)c1` is 3.39

Emin for `O=c1cc(OCCOc2cc(Cl)ccn2)ccn1-c1ccc(F)cc1` is 3.77

Emin for `O=c1cc(OCCOc2ccccc2)ccn1-c1ccc(F)cc1` is 2.69

Emin for `N#Cc1cccc(-n2ccc(OCCOc3ccccc3)cc2=O)c1` is 3.63

Emin for `O=c1cc(OCCOc2ccccc2)ccn1-c1cccc(F)c1` is 3.45

Emin for `O=c1nc(OCCOc2ccccc2)ccn1-c1ccc(F)c(F)c1` is 3.77

====

Target: UniProt P11712
Sequence (P11712 whole entry): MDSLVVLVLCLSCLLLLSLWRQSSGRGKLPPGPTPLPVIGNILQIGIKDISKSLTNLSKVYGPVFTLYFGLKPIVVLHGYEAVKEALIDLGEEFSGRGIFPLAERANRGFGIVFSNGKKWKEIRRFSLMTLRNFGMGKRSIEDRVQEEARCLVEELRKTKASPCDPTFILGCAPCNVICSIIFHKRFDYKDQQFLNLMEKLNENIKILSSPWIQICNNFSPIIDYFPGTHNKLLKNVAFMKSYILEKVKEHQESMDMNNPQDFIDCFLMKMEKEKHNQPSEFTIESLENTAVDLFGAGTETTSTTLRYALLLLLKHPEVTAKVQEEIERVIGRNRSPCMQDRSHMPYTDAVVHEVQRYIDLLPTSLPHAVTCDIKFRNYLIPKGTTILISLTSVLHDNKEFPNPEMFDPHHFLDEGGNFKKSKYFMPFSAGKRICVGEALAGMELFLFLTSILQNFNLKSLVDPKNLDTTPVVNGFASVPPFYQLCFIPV
Test: Inhibition of CYP2C9 in human liver microsomes using diclofenac as substrate after 15 mins in presence of NADPH by LC/MS/MS analysis
Assay type: ADME
assay_readout: IC50

IC50 for `C[C@@H](COc1ccn(-c2ccc(F)cc2)c(=O)c1)Oc1ccccc1` is > 30 µM

====

Attribute: fraction unbound at 6 h, 5 µM
Test: Fraction unbound in rat brain homogenate at 5 uM after 6 hrs by equilibrium dialysis based LC/MS/MS analysis
Type: ADME, tissue-based

INSERT INTO results (compound, assay_readout, value_measured) VALUES
  ('C[C@@H](COc1ccn(-c2ccc(F)cc2)c(=O)c1)Oc1ccccc1', 'fraction unbound at 6 h, 5 µM', 0.06);

From here, focus on the item given below.
fraction unbound at 6 h, 5 µM for CC(COc1ccn(-c2ccc(F)cc2)c(=O)c1)Oc1ccccc1 (configuration not stated) is 0.05

====

Target: L-type calcium channel, benzodiazepine site (Rattus norvegicus, UniProt P22002+P27732+Q02485)
Assay: Inhibition of rat L-type calcium channel benzodiazepine site at 10 uM relative to control
Format: protein assay
assay_readout: inhibition at 10 µM

inhibition at 10 µM for `C[C@@H](COc1ccn(-c2ccc(F)cc2)c(=O)c1)Oc1ccccc1` is > 50%

====

Experiment: Unbound brain to plasma concentration ratio in Harlan CD-1 mouse at 3 mg/kg, ip by LC/MS-MS analysis
Assay type: ADME, organism-based
Details: read-out: K(p,uu,brain)
assay_readout: Kp uu
Lab note: record just the number, no unit beside it.

Kp uu for `C[C@@H](COc1ccn(-c2ccc(F)cc2)c(=O)c1)Oc1ccccc1` is 0.27

====

Assay: Unbound brain-to-plasma concentration ratio in rat
Format: ADME
Settings: read-out: K(p,uu,brain)
assay_readout: Kp uu
Lab note: record just the number, no unit beside it.

INSERT INTO results (molecule, assay_readout, value_measured) VALUES
  ('C[C@@H](COc1ccn(-c2ccc(F)cc2)c(=O)c1)Oc1ccccc1', 'Kp uu', 0.4);

Kp uu for CC(COc1ccn(-c2ccc(F)cc2)c(=O)c1)Oc1ccccc1 (configuration not stated) is 1.3

====

Biological target: L-type calcium channel, dihydropyridine site (Rattus norvegicus, UniProt P22002+P27732+Q02485)
Assay: Inhibition of rat L-type calcium channel dihydropyridine site at 10 uM relative to control
Format: protein assay
assay_readout: inhibition at 10 µM

inhibition at 10 µM for `C[C@@H](COc1ccn(-c2ccc(F)cc2)c(=O)c1)Oc1ccccc1` is > 50%

====

Test: Fraction unbound in human plasma at 5 uM after 4 hrs by equilibrium dialysis based LC/MS/MS analysis
Assay type: ADME, cell-free
assay_readout: fraction unbound at 4 h, 5 µM
Lab note: record just the number, no unit beside it.

INSERT INTO results (compound, assay_readout, value_measured) VALUES
  ('C[C@@H](COc1ccn(-c2ccc(F)cc2)c(=O)c1)Oc1ccccc1', 'fraction unbound at 4 h, 5 µM', 0.18);

fraction unbound at 4 h, 5 µM for CC(COc1ccn(-c2ccc(F)cc2)c(=O)c1)Oc1ccccc1 (configuration not stated) is 0.1

====

Target: Metabotropic glutamate receptor 5 (Rattus norvegicus, UniProt P31424)
Sequence (P31424 whole entry): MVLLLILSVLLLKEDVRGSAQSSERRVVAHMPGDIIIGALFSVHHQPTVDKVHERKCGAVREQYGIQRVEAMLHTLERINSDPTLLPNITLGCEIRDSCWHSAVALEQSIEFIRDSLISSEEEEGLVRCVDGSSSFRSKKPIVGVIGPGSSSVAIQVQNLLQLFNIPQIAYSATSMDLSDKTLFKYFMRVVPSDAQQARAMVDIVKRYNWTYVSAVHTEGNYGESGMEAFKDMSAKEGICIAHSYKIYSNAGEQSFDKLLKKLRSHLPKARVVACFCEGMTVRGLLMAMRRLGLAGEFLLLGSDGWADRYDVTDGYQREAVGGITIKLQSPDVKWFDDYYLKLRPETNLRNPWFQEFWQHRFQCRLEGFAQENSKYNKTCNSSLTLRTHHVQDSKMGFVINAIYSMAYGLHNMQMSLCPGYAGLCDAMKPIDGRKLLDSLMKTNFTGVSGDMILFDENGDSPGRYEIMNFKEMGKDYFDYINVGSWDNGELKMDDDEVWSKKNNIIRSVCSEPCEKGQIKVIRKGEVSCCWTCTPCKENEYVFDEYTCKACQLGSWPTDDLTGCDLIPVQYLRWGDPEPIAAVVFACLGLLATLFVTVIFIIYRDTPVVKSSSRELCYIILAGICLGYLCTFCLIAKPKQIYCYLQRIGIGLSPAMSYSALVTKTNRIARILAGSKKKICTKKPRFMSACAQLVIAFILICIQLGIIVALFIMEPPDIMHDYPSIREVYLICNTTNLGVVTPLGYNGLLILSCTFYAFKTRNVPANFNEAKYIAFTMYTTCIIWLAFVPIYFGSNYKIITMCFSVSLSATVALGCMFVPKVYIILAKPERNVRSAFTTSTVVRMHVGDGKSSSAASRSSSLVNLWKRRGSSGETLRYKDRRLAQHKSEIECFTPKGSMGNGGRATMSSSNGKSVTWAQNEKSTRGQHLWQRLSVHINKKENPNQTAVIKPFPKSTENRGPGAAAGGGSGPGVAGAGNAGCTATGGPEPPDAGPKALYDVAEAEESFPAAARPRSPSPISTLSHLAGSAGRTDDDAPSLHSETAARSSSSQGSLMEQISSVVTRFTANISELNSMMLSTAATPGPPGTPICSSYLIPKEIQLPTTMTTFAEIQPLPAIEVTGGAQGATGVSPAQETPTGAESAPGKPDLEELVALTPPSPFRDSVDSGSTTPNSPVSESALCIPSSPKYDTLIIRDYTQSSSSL
Assay: Positive allosteric modulation of rat mGlu5 receptor expressed in HEK293A cells assessed as increase in glutamate induced-calcium mobilization preincubated for 2.3 mins followed by glutamate addition measured for 1.9 mins by Fluo-4 AM dye based fluorescence assay
assay_readout: pEC50
pEC50 is a log-scale quantity: -log10 of the concentration expressed in molar.

pEC50 for `O=c1cc(OCCOc2ccccc2)ccn1-c1ccc(F)cc1` is 6.25

pEC50 for `O=c1cc(OCCOc2cccc(F)c2)ccn1-c1ccc(F)cc1` is 5.82

pEC50 for `O=c1cc(OCCOc2ccccc2)ccn1-c1ccc(F)c(F)c1` is 6.47

pEC50 for `O=c1cc(OCCOc2ccccc2)ccn1-c1cccc(F)c1` is 5.72

====

Target: Metabotropic glutamate receptor 3 (Rattus norvegicus, UniProt P31422)
Sequence (P31422 whole entry): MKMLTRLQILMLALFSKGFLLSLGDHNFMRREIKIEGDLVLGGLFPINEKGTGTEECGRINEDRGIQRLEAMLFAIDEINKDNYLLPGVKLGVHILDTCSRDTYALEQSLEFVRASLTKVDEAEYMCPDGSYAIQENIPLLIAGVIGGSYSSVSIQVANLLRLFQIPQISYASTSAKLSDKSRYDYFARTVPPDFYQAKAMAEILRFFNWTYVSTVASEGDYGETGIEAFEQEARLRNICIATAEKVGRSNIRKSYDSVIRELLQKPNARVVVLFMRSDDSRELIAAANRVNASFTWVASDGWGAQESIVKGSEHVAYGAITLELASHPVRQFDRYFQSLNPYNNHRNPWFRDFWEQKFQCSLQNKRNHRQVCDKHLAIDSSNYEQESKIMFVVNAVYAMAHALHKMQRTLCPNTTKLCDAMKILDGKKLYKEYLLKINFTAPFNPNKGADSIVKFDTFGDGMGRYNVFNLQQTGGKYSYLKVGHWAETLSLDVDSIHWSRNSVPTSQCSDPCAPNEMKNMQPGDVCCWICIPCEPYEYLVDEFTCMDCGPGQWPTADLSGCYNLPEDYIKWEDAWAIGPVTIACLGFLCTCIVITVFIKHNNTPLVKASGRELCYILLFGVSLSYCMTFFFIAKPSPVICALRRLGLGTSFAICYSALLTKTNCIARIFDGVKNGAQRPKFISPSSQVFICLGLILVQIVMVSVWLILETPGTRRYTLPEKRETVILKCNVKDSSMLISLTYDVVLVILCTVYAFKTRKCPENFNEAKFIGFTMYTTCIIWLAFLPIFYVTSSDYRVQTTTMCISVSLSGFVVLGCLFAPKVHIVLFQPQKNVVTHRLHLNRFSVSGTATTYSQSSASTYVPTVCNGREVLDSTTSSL
Experiment: Negative allosteric modulation of rat mGlu3 receptor expressed in TREX cells coexpressing Galpha15 assessed as inhibition of glutamate induced-calcium mobilization preincubated for 2.3 mins followed by glutamate addition measured for 2.6 mins by Fluo-4 AM dye based fluorescence assay
Type: functional, cell-based
Attribute: IC50
Kindly answer with a numeric value in nM, unit omitted.

See these solved cases before continuing.
INSERT INTO measurements (chem_smiles, assay_readout, value_measured) VALUES
  ('O=c1cc(OCCOc2ccccc2)ccn1-c1ccc(F)cc1', 'IC50', 930),
  ('O=c1nc(OCCOc2ccccc2)ccn1-c1ccc(F)c(F)c1', 'IC50', 1020),
  ('O=c1cc(OCCOc2cccc(F)c2)ccn1-c1ccc(F)cc1', 'IC50', 350),
  ('O=c1cc(OCCOc2ccccc2)ccn1-c1ccc(F)c(F)c1', 'IC50', 180);

From here, focus on the item given below.
IC50 for `O=c1cc(OCCOc2ncccc2Cl)ccn1-c1ccc(F)cc1` is 450

====

Target: Cytochrome P450 3A4 (Homo sapiens, UniProt P08684)
Sequence (P08684 whole entry): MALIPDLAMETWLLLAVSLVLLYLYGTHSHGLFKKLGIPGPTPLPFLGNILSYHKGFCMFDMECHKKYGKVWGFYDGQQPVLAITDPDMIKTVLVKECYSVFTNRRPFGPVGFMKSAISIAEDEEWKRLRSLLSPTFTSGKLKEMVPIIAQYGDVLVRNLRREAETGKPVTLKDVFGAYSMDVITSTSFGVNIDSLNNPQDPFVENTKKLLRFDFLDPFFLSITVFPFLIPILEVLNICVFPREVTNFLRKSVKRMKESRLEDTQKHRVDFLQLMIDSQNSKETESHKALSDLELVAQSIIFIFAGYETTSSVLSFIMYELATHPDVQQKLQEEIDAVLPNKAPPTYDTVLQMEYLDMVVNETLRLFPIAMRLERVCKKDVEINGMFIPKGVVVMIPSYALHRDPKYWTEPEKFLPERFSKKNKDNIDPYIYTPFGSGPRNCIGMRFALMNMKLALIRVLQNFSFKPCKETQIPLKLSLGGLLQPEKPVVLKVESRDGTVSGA
pIC50: −log10 of the molar value.
assay_readout: pIC50

Tested on Cytochrome P450 3A4 (Homo sapiens, UniProt P08684), the item `C[C@@H](COc1ccn(-c2ccc(F)cc2)c(=O)c1)Oc1ccccc1` showed pIC50 equal to < 4.52
